target: Cytochrome P450 1A2 (Homo sapiens) (UniProt P05177); assay: Cytochrome panel assay with activity outcomes; conditions: recombinant CYP, pro-luciferin dealkylation, luminescence, p450-cyp1a2; series mostly up to 57.1 µM
Sequence (P05177 whole entry, looked up): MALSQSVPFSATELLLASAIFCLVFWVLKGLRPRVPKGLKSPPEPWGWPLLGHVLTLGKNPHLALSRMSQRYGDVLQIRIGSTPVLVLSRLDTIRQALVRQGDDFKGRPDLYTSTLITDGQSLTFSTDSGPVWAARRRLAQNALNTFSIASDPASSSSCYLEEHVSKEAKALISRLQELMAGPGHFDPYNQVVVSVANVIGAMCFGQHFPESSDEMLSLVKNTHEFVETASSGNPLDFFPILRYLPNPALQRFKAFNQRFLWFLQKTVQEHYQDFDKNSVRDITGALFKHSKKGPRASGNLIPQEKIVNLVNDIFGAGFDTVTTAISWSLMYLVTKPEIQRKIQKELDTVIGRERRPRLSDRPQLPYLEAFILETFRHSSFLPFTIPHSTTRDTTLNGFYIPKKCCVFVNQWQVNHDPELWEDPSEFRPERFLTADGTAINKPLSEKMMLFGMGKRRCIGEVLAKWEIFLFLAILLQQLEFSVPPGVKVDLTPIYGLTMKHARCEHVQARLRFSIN
Hit rate of the full screen: of about 16,000 compounds, about 5,700 (36%) were called active. Not shown: some 24% with an inconclusive outcome. The list shows a part of the results.
result.type: AC50

Previously resolved entries follow.
> print(dat)
                                   compound                       experimental.target    observed.value
1  COC(=O)[C@@H]1C[C@H]1[C@@H](NC(=O)c1cc(C)nn1C)c1ccccc1  Cytochrome P450 1A2 (Homo sapiens) (UniProt P05177)  15.8 µM (active)
2                   Cc1cc(OCCNCCO)cc(C)c1Cl  Cytochrome P450 1A2 (Homo sapiens) (UniProt P05177)     2 µM (active)
3  O=S(=O)(c1ccc(F)cc1)N1CCCC(CO)C1 (stereo not given)  Cytochrome P450 1A2 (Homo sapiens) (UniProt P05177)          inactive
4          O=C1SC(c2ccccc2)=C/C1=C\N1CCCCC1  Cytochrome P450 1A2 (Homo sapiens) (UniProt P05177)     1 µM (active)
5  O=C(/C=C/c1ccco1)NC(=S)Nc1ccc(N2CCOCC2)c(Cl)c1  Cytochrome P450 1A2 (Homo sapiens) (UniProt P05177)          inactive
6       Cn1cc(C(=O)c2ccc(Cl)cc2Cl)cc1C(=O)O  Cytochrome P450 1A2 (Homo sapiens) (UniProt P05177)          inactive
7  Cc1ccc(/C=C/C(=O)NC(=S)Nc2ccccc2C(=O)NC2CCCCC2)cc1  Cytochrome P450 1A2 (Homo sapiens) (UniProt P05177)          inactive
8                O=C(N/N=C/c1ccco1)c1ccccn1  Cytochrome P450 1A2 (Homo sapiens) (UniProt P05177)  6.31 µM (active)

Below is a list of compounds. For each, state its recorded AC50.
1. NCCCNCCCCNCCCN
2. O=C(Nc1ccccn1)c1ccco1
3. COC(=O)c1cc(C#N)c(Oc2ccc(OC)cc2)nc1C
4. Cc1occc1C(=O)NNC(=O)Cc1ccccc1
5. Cc1cc(C)n(CC(=O)N/N=C/c2ccco2)n1

Completion:
1. inactive
2. 11.2 µM (active)
3. 4.47 µM (active)
4. inactive
5. inactive

Below is a list of compounds. For each, state its recorded AC50.
1. Cc1ccc(C(=O)NNC(=O)C2CCCN(c3ncccn3)C2)cc1 (stereo not given)
2. C=C1C(=O)O[C@@H]2[C@@H]1CC/C(C)=C\CC[C@@]1(C)O[C@H]21

Completion:
["inactive", "inactive"]
